Numbers sourced from ChEMBL document CHEMBL3988442.

molecular target: Ubiquitin-activating enzyme e1, putative (Leishmania donovani (strain BPK282A1)) (UniProt E9BSI1); test: Leishmania donovani Ubiquitin Activating Enzyme (LdE1); format: functional; parameters: scale not given: direction of the effect not stated beside the values; settings: 30 µM
Sequence (E9BSI1 as listed by the source): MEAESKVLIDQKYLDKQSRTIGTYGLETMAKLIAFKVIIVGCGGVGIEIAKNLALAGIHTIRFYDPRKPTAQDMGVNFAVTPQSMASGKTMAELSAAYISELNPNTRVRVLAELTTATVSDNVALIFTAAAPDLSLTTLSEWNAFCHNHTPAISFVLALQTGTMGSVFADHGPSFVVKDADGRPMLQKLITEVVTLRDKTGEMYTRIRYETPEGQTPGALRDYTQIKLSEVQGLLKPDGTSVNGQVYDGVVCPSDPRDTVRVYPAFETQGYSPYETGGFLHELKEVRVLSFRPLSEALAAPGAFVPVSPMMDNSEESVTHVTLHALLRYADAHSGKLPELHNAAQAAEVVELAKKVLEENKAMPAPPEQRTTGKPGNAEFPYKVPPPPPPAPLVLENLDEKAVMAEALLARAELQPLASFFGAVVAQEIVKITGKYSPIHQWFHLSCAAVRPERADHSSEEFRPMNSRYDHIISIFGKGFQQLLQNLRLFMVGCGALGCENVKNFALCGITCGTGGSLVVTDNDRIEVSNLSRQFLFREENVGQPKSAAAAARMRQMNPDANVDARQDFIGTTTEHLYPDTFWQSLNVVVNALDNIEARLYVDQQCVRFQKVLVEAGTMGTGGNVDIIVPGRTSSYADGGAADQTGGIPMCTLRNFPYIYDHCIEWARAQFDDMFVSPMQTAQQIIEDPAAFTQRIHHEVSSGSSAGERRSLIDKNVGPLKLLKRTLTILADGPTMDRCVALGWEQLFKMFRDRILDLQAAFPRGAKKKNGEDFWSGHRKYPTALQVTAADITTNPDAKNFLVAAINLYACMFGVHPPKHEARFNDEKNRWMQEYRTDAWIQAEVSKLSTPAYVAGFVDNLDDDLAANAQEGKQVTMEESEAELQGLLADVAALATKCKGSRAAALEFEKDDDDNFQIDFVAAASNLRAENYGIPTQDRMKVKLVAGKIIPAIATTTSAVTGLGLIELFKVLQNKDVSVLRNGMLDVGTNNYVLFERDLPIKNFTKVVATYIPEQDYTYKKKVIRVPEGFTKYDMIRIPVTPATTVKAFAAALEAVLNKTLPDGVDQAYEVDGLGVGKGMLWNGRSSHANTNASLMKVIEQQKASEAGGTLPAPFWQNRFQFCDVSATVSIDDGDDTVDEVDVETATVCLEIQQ
Measured potencies and affinities stand elsewhere.
measurement_name: Percent Effect (%)

{"molecule": "CNS(=O)(=O)Cc1ccc(CNC(=O)c2cccc(C)n2)cc1", "measurement_name": "Percent Effect", "recorded_measurement": 23.4}
{"molecule": "CCn1cnnc1CNC(=O)N1CCCN(C(C)=O)CC1", "measurement_name": "Percent Effect", "recorded_measurement": 15.6}
{"molecule": "Cc1nc2c(c(N3CC=CC3)n1)CCN(Cc1ccoc1)CC2", "measurement_name": "Percent Effect", "recorded_measurement": 5.2}
{"molecule": "Cc1n[nH]c(C2CN(C(=O)c3cc(Cl)c[nH]3)CCO2)n1 (configuration not stated)", "measurement_name": "Percent Effect", "recorded_measurement": 2.63}
{"molecule": "CCc1nc(CCNC(=O)Nc2cc(C(N)=O)sc2C)cs1", "measurement_name": "Percent Effect", "recorded_measurement": 0}
{"molecule": "COc1ccc(-n2cnnc2SCC(C)(C)O)cn1", "measurement_name": "Percent Effect", "recorded_measurement": 2.67}
{"molecule": "Cc1cc(C[S+]([O-])CC(=O)Nc2c(C)cccc2C)no1 (configuration not stated)", "measurement_name": "Percent Effect", "recorded_measurement": 18.2}
{"molecule": "CC(C)c1nc(C2CCCN(C(=O)CCn3ccnc3)C2)no1 (configuration not stated)", "measurement_name": "Percent Effect", "recorded_measurement": 24.3}
{"molecule": "O=C1NCCN1C1CCN(Cc2ccccn2)CC1", "measurement_name": "Percent Effect", "recorded_measurement": 0}
{"molecule": "CNC(=O)Cc1ccc(NC(=O)NC(C)C(C)C)cc1 (configuration not stated)", "measurement_name": "Percent Effect", "recorded_measurement": 10.5}
{"molecule": "c1ccc(CN2CC[C@@H]3O[C@@H](COCC4CCOCC4)CC[C@@H]32)nc1", "measurement_name": "Percent Effect", "recorded_measurement": 10.7}
{"molecule": "CC(=O)Nc1nc(C(=O)NCc2ccc(N3CCCCCC3)nc2)cs1", "measurement_name": "Percent Effect", "recorded_measurement": 24.1}
